- Tested on: Staphylococcus aureus ATCC 43300
- Particulars: MRSA; CLSI, Mueller–Hinton broth, 5 × 10^5 CFU/mL, 18 h 37 °C, by CO-ADD
Peptide text beside a SMILES is read from it. * marks the point of attachment. Palmitoyl = CCCCCCCCCCCCCCCC(=O)*

{"Compound": "CCCCCCCCCCCCCCCC(=O)NCC(=O)N[C@@H](CCCNC(=N)N)C(=O)N[C@@H](CCCNC(=N)N)C(=O)NCC(=O)NCC(=O)N[C@@H](CCCNC(=N)N)C(=O)NCC(=O)NCC(=O)N[C@@H](CCCNC(=N)N)C(=O)NCC(=O)N[C@@H](CCCNC(=N)N)C(=O)NCC(=O)N[C@@H](CCCNC(=N)N)C(=O)O [Pal-GR13] (Palmitoyl-GRRGGRGGRGRGR-OH)", "Minimal inhibitory concentration (MIC)": "0.25 µg/mL"}
{"Compound": "CCCCCCCCCCCCCCCC(=O)N[C@@H](CO)C(=O)N[C@@H](Cc1c[nH]cn1)C(=O)N[C@@H](Cc1c[nH]cn1)C(=O)N[C@@H](CCCNC(=N)N)C(=O)N[C@@H](Cc1c[nH]cn1)C(=O)N[C@@H](Cc1ccccc1)C(=O)N[C@@H](CCCNC(=N)N)C(=O)N[C@@H](CO)C(=O)N[C@@H](Cc1c[nH]cn1)C(=O)N[C@@H](CCC(N)=O)C(=O)N[C@@H](CS)C(=O)N[C@@H](CCCNC(=N)N)C(=O)N[C@@H](CCCNC(=N)N)C(=O)O [Pal-LCE-3C55-67] (Palmitoyl-SHHRHFRSHQCRR-OH)", "Minimal inhibitory concentration (MIC)": "32 µg/mL"}
{"Compound": "CCCCCCCCCCCCCCCC(=O)N[C@@H](CO)C(=O)N[C@@H](Cc1c[nH]cn1)C(=O)N[C@@H](Cc1c[nH]cn1)C(=O)N[C@@H](CCCNC(=N)N)C(=O)N[C@@H](CS)C(=O)N[C@@H](CS)C(=O)N[C@@H](CCCNC(=N)N)C(=O)N[C@@H](CO)C(=O)N[C@@H](Cc1c[nH]cn1)C(=O)N[C@@H](CCCNC(=N)N)C(=O)N[C@@H](CS)C(=O)N[C@@H](CCCNC(=N)N)C(=O)N[C@@H](CCCNC(=N)N)C(=O)O [Pal-LCE-3B56–68] (Palmitoyl-SHHRCCRSHRCRR-OH)", "Minimal inhibitory concentration (MIC)": "16 µg/mL"}

====

- Test system: S. aureus ATCC 6538
- Particulars: CFU assay, 10 mM NaP, pH 5.5, 0.25% glucose
Square brackets hold non-standard residues; d marks the D form. Peptide text beside a SMILES is read from it. * marks the point of attachment. Palmitoyl = CCCCCCCCCCCCCCCC(=O)*

{"Compound": "CCCCCCCCCCCCCCCC(=O)NCC(=O)N[C@H](CCCNC(=N)N)C(=O)N[C@H](CCCNC(=N)N)C(=O)NCC(=O)NCC(=O)N[C@H](CCCNC(=N)N)C(=O)NCC(=O)NCC(=O)N[C@H](CCCNC(=N)N)C(=O)NCC(=O)N[C@H](CCCNC(=N)N)C(=O)NCC(=O)N[C@H](CCCNC(=N)N)C(=O)O [(D)-Pal-GR13] (Palmitoyl-G[dR][dR]GG[dR]GG[dR]G[dR]G[dR]-OH; C-terminus assumed)", "LD90": "0.075 µg/mL"}
{"Compound": "CCCCCCCCCCCCCCCC(=O)NCC(=O)N[C@@H](CCCCN)C(=O)NCC(=O)N[C@@H](CCCCN)C(=O)O [Pal-GK4] (Palmitoyl-GKGK-OH; C-terminus assumed)", "LD90": "4.7 µg/mL"}
{"Compound": "CCCCCCCCCCCCCCCC(=O)NCC(=O)N[C@H](CCCNC(=N)N)C(=O)NCC(=O)N[C@H](CCCNC(=N)N)C(=O)O [Pal-(D)-GR4] (Palmitoyl-G[dR]G[dR]-OH; C-terminus assumed)", "LD90": "18.75 µg/mL"}
{"Compound": "CCCCCCCCCCCCCCCC(=O)NCC(=O)N[C@@H](CCCNC(=N)N)C(=O)N[C@@H](CCCNC(=N)N)C(=O)NCC(=O)NCC(=O)N[C@@H](CCCNC(=N)N)C(=O)NCC(=O)NCC(=O)N[C@@H](CCCNC(=N)N)C(=O)O [Pal-GR9] (Palmitoyl-GRRGGRGGR-OH)", "LD90": "1.18 µg/mL"}
